- system.under.test: T1, recombinant 302–359 fragment of human mesothelin (hMSLN) (human, UniProt Q13421 302-359, biotin on the AviTag)
- T1 chain: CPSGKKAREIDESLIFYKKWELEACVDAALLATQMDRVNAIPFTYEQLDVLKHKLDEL
- assay.method.text: SPR
property: koff (s⁻¹)
Field format: number, assumed s⁻¹, no unit text.

// fetch koff given entry N7 Affitin (monomer) (designed binder, biotin on the AviTag) MRGSHHHHHHGSATKVKFKYMGEEKEVDISKIKVVSRSVGPLGSFILFQYDDNGKMGRGFVSEKDAPKELLEKLKLN
0.214

Write down koff measured for item N23 Affitin (monomer) (designed binder, biotin on the AviTag) MRGSHHHHHHGSATKVKFKLFGEEKEVDISKIKRVERRAIQAASYIAFAYDDNGKIGHGWVSEKDAPKELLEKLKLN
0.288

Item N18 Affitin (monomer) (designed binder, biotin on the AviTag) MRGSHHHHHHGSATKVKFKLFGEEKEVDISKIKKVERRTFHMDKTIVFMYDDNGKSGYGWVSEKDAPKELLEKLKLN : provide koff
0.073

Assign koff to the following record: N13 Affitin (monomer) (designed binder, biotin on the AviTag) MRGSHHHHHHGSATKVKFKVFGEEKEVDISKIKHVDRMNWRGLLYIRFSYDDNGKLGHGWVSEKDAPKELLEKLKLN
0.0647
